Hi there, I'd appreciate the recorded cytotoxicity at 10 µM for every entry that follows.
- Method summary: Toxicity liver stage against HepG2, at 10uM
- Format: cell-based
- Parameters: test concentration 10 uM, cell line HepG2-A16-CD81EGFP
- Condition details: human, HepG2-A16-CD81EGFP cells; read-out: INHIBITION
State the value with its unit after it.

Asked: Field request: cytotoxicity at 10 µM | item: CN1Cc2ccccc2CC2(CCN(c3ncccn3)CC2)C1=O
Given back: -7.42%

Asked: Field request: cytotoxicity at 10 µM | item: COc1ccc(NC(=O)N2CCC(c3nnc[nH]3)CC2)cc1C
Given back: 15.8%

Asked: Field request: cytotoxicity at 10 µM | item: Cn1nccc1NC(=O)Cn1ccc(-c2ccc3c(c2)OCO3)n1
Given back: -6.74%

Asked: Field request: cytotoxicity at 10 µM | item: CN(C)[C@@H]1CN(Cc2ccccc2O)C[C@H]1c1cn(C)c2ccccc12
Given back: 6.6%

Asked: Field request: cytotoxicity at 10 µM | item: CSc1ccccc1-n1ccnc1-c1cn(C2CCNCC2)nn1
Given back: -0.67%

Asked: Field request: cytotoxicity at 10 µM | item: Cn1cc(CCC(=O)NC(c2ccc(F)cc2)C(F)(F)F)cn1 (stereo unspecified)
Given back: 1.68%
